EXPERIMENTAL_SYSTEM: T1, human IL-13 (human, UniProt P35225 35-146, biotinylated on the Biacore chip)
T1 construct: also called hIL-13; recombinant human IL-13
T1 sequence (P35225 35-146 limits assumed): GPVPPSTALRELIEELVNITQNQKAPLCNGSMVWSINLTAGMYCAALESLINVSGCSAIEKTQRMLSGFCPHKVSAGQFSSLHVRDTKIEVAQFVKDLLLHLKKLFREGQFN
PROTOCOL: Dom10 RBA (IL-13 sandwich ELISA per paragraph 471)
Entries annotated with measured EC50
Write the answer as a number in µM, unit excluded.

// lookup EC50 for DOM10-277-ASTKGPS-DOM9-155-78 (bispecific antibody, in-line fusion, from pDOM5) EVQLLESGGGLVQPGGSLRLSCAASGFTFSSYEMDWVRQAPGKGLEWVSTISADGVTTYYADSVKGRFTISRDNSKNTLYLQMNSLRAEDTAVYYCAKAFDAFDYWGQGTLVTVSSASTKGPSDIQMTQSPSSLSASVGDRVTITCRASRHIGDWLHWYQQKPGKAPKLLIAWASTLDSGVPSRFSGSGSGTDFTLTISSLQPEDFATYYCLQEGWGPPTFGQGTKVEIKR
0.648

// lookup EC50 for DOM9-112-210-ASTKGPS-DOM10-416 (bispecific antibody, in-line fusion, from pDOM5) EVQLLESGGGLVQPGGSLRLSCAASGFTFRNFGMGWVRQAPGKGLEWVSWIISSGTETYYADSVKGRFTISRDNSKNTLYLQMNSLRAEDTAVYYCAKSLGRFDYWGQGTLVTVSSASTKGPSEVQLLESGGGLVQPGGSLRLSCAASGFTFKGSEMDWVRQAPGKGLEWVSTISADGRETYYADSVKGRFTISRDNSKNTLYLQMNSLRAEDTAVYYCAKSYTSFDYWGQGTLVTVSS
34.4
